- tested target: CYP2D6 (Homo sapiens)
- Construct: purchased Sigma Aldrich C4982
- experiment summary: Metabolism by cytochrome P450 2D6 (CypExpress), HPLC
- Assay type: in vitro ADME
- measurement conditions: 1500 µM, 1 h
reported property: Metabolism by CYP2D6 (concentration)
The reply should consist of the numeric value with the unit placed after it.

compound="COc1ccc([C@@H]2Sc3ccccc3N(CCN(C)C)C(=O)[C@@H]2OC(C)=O)cc1 [Diltiazem, reference compound]" reported_property="Metabolism by CYP2D6 (concentration)" result="1290 µM"

Query COc1cc(S(N)(=O)=O)cc(OC)c1OC [3,4,5-TMBS, 3,4,5-trimethoxybenzenesulfonamide] yields Metabolism by CYP2D6 (concentration) of 984 µM

----------
Can you tell me AUC(0-inf) for the items I'm about to list?
- experiment summary: Oral bioavailability / pharmacokinetics in rats
- Format: in vivo, Sprague Dawley rats
- measurement conditions: male, Sprague Dawley, rat serum, 100 mg/kg, n = 6
Report field: quantity (unit follows the number).

compound="COc1cc(S(N)(=O)=O)cc(OC)c1OC [3,4,5-TMBS, 3,4,5-trimethoxybenzenesulfonamide]" result="386000 ng·h/mL"
compound="NS(=O)(=O)c1cc(O)c(O)c(O)c1 [3,4,5-THBS, 3,4,5-trihydroxybenzenesulfonamide]" result="24200 ng·h/mL"

Input O=C(O)c1cc(O)c(O)c(O)c1 [GA, 3,4,5-trihydroxybenzoic acid, reference compound] . Output AUC(0-inf): 13000 ng·h/mL

----------
Hi there, I'd appreciate the recorded Tmax for every entry that follows.
- experiment summary: Oral bioavailability / pharmacokinetics in rats
- Format: in vivo, Sprague Dawley rats
- measurement conditions: male, Sprague Dawley, rat, serum, po, 100 mg/kg, rat serum

molecule="O=C(O)c1cc(O)c(O)c(O)c1 [GA, 3,4,5-trihydroxybenzoic acid, reference compound]" result="1.3 h"

Would you mind giving Tmax for every molecule in the list below?
1. COc1cc(S(N)(=O)=O)cc(OC)c1OC [3,4,5-TMBS, 3,4,5-trimethoxybenzenesulfonamide]
2. NS(=O)(=O)c1cc(O)c(O)c(O)c1 [3,4,5-THBS, 3,4,5-trihydroxybenzenesulfonamide]

["2.87 h", "2 h"]

----------
- experiment summary: Oral bioavailability / pharmacokinetics in rats
- Assay type: in vivo, Sprague Dawley rats
- measurement conditions: male, Sprague Dawley, rat serum, 100 mg/kg, n = 6
reported property: half-life
Report the figure along with its unit, number first.

These recorded examples may help you get a feel for the data.
molecule="O=C(O)c1cc(O)c(O)c(O)c1 [GA, 3,4,5-trihydroxybenzoic acid, reference compound]" result="3.6 h"
molecule="NS(=O)(=O)c1cc(O)c(O)c(O)c1 [3,4,5-THBS, 3,4,5-trihydroxybenzenesulfonamide]" result="2.1 h"

Note: attention shifts to another entry.
So, COc1cc(S(N)(=O)=O)cc(OC)c1OC [3,4,5-TMBS, 3,4,5-trimethoxybenzenesulfonamide] ? Its half-life was 7.17 h

----------
- tested target: CYP2D6 (Homo sapiens, UniProt P10635)
- Construct: purchased Sigma Aldrich C4982
- Sequence (P10635 whole entry): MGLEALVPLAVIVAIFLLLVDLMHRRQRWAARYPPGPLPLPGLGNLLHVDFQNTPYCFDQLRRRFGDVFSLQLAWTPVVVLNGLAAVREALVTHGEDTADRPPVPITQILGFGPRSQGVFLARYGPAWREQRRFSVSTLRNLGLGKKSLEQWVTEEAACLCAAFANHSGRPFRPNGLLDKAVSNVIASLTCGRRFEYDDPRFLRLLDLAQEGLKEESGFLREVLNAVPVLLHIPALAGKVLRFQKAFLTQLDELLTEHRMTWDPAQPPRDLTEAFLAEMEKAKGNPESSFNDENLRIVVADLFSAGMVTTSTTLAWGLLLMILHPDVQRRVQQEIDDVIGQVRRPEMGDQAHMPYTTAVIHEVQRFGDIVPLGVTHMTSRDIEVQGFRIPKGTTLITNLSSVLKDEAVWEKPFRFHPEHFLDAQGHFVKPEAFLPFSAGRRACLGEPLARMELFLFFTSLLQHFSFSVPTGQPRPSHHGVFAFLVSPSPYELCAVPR
- experiment summary: Metabolism by cytochrome P450 2D6 (CypExpress), HPLC
- Type: in vitro ADME
- measurement conditions: 1000 µM, 1 h
Field: Metabolism by CYP2D6 (concentration). Provide a value for each of the molecules that follow.
One number for each entry, in µM.

molecule="COc1ccc([C@@H]2Sc3ccccc3N(CCN(C)C)C(=O)[C@@H]2OC(C)=O)cc1 [Diltiazem, reference compound]" u=µM quantitative_result=828

Record summary for COc1cc(S(N)(=O)=O)cc(OC)c1OC [3,4,5-TMBS, 3,4,5-trimethoxybenzenesulfonamide] : reported Metabolism by CYP2D6 (concentration) = 754

----------
Would you mind telling me the reported MRT inf of each entry?
- experiment summary: Oral bioavailability / pharmacokinetics in rats
- Type: in vivo, Sprague Dawley rats
- measurement conditions: male, Sprague Dawley, rat serum, 100 mg/kg, n = 6, read-out: MRT0–∞
- Method: Male Sprague Dawley rats, aged 7–9 weeks and weighing 220 ± 20 g on average, were used for bioavailability studies. […] The retention times for THBS and TMBS were 2.39 and 3.47 min, respectively, while GA eluted at 2.4 min, all detected at 254 nm. Results were analyzed using Lab Solution Software LC (version 5.3) and represent the average of three measurements.
Give bare numbers, in h.

Some entries whose results are on file:
molecule="NS(=O)(=O)c1cc(O)c(O)c(O)c1 [3,4,5-THBS, 3,4,5-trihydroxybenzenesulfonamide]" quantitative_result=2.69
molecule="COc1cc(S(N)(=O)=O)cc(OC)c1OC [3,4,5-TMBS, 3,4,5-trimethoxybenzenesulfonamide]" quantitative_result=11.9

Now for another entry.
The molecule listed as O=C(O)c1cc(O)c(O)c(O)c1 [GA, 3,4,5-trihydroxybenzoic acid, reference compound] has a reported MRT inf of 7.66

----------
Please go through the items and note down their AUC(0-t).
- experiment summary: Oral bioavailability / pharmacokinetics in rats
- Format: in vivo, Sprague Dawley rats
- measurement conditions: male, Sprague Dawley, rat serum, 100 mg/kg, n = 6
Give bare numbers, in ng·h/mL.

For orientation, consider the following solved cases.
compound="COc1cc(S(N)(=O)=O)cc(OC)c1OC [3,4,5-TMBS, 3,4,5-trimethoxybenzenesulfonamide]" reported_property=AUC(0-t) quantitative_result=173000
compound="NS(=O)(=O)c1cc(O)c(O)c(O)c1 [3,4,5-THBS, 3,4,5-trihydroxybenzenesulfonamide]" reported_property=AUC(0-t) quantitative_result=24200

As a next step, examine the compound that follows.
Lookup result for O=C(O)c1cc(O)c(O)c(O)c1 [GA, 3,4,5-trihydroxybenzoic acid, reference compound] ; measured AUC(0-t): 9320

----------
- tested target: CYP2D6 (Homo sapiens)
- Construct: purchased Sigma Aldrich C4982
- experiment summary: Metabolism by cytochrome P450 2D6 (CypExpress), HPLC
- Format: in vitro ADME
- measurement conditions: 1500 µM, 3 h
reported property: Metabolism by CYP2D6 (concentration) (µM)
Numbers only, in µM.

compound="COc1cc(S(N)(=O)=O)cc(OC)c1OC [3,4,5-TMBS, 3,4,5-trimethoxybenzenesulfonamide]" tested_target="CYP2D6 (Homo sapiens)" quantitative_result=1240

# evaluate next
Record COc1ccc([C@@H]2Sc3ccccc3N(CCN(C)C)C(=O)[C@@H]2OC(C)=O)cc1 [Diltiazem, reference compound] . Reported Metabolism by CYP2D6 (concentration): 1460

----------
For each entry below, report its CL/F value.
- experiment summary: Oral bioavailability / pharmacokinetics in rats
- Assay type: in vivo, Sprague Dawley rats
- measurement conditions: male, Sprague Dawley, rat serum, 100 mg/kg, n = 6
- Description: Male Sprague Dawley rats, aged 7–9 weeks and weighing 220 ± 20 g on average, were used for bioavailability studies. […] The retention times for THBS and TMBS were 2.39 and 3.47 min, respectively, while GA eluted at 2.4 min, all detected at 254 nm. Results were analyzed using Lab Solution Software LC (version 5.3) and represent the average of three measurements.
Numbers only, in mL/min/kg.

Below, each entry is followed by its recorded CL/F result.
compound="COc1cc(S(N)(=O)=O)cc(OC)c1OC [3,4,5-TMBS, 3,4,5-trimethoxybenzenesulfonamide]" quantitative_result=6.17
compound="O=C(O)c1cc(O)c(O)c(O)c1 [GA, 3,4,5-trihydroxybenzoic acid, reference compound]" quantitative_result=148

Now for another entry.
response.value for NS(=O)(=O)c1cc(O)c(O)c(O)c1 [3,4,5-THBS, 3,4,5-trihydroxybenzenesulfonamide] (field: CL/F) = 73.2

----------
- experiment summary: Oral bioavailability / pharmacokinetics in rats
- Assay type: in vivo, Sprague Dawley rats
- measurement conditions: male, Sprague Dawley, rat serum, 100 mg/kg (table: 100 mg dose), n = 6
reported property: Cmax (ng/mL)
One number for each entry, in ng/mL.

Some solved cases for reference:
compound="COc1cc(S(N)(=O)=O)cc(OC)c1OC [3,4,5-TMBS, 3,4,5-trimethoxybenzenesulfonamide]" quantitative_result=25800
compound="O=C(O)c1cc(O)c(O)c(O)c1 [GA, 3,4,5-trihydroxybenzoic acid, reference compound]" quantitative_result=2140

Now for a further compound.
Lab book: Cmax of NS(=O)(=O)c1cc(O)c(O)c(O)c1 [3,4,5-THBS, 3,4,5-trihydroxybenzenesulfonamide] noted as 9560

----------
- tested target: CYP2D6 (Homo sapiens)
- Construct: purchased Sigma Aldrich C4982
- experiment summary: Metabolism by cytochrome P450 2D6 (CypExpress), HPLC
- Type: in vitro ADME
- measurement conditions: 1500 µM, 4 h
reported property: Metabolism by CYP2D6 (concentration) (µM)
One number for each entry, in µM.

molecule="COc1cc(S(N)(=O)=O)cc(OC)c1OC [3,4,5-TMBS, 3,4,5-trimethoxybenzenesulfonamide]" reported_property="Metabolism by CYP2D6 (concentration)" quantitative_result=1250

With those in mind, consider the next molecule.
Value (Metabolism by CYP2D6 (concentration), CYP2D6 (Homo sapiens)) for record COc1ccc([C@@H]2Sc3ccccc3N(CCN(C)C)C(=O)[C@@H]2OC(C)=O)cc1 [Diltiazem, reference compound] = 1230
